I'd be grateful if you could share measured pIC50 for these entries.
Target: CSF1R phosphorylation in THP-1 cells (Homo sapiens (Human))
Sequence (P07333 20-972): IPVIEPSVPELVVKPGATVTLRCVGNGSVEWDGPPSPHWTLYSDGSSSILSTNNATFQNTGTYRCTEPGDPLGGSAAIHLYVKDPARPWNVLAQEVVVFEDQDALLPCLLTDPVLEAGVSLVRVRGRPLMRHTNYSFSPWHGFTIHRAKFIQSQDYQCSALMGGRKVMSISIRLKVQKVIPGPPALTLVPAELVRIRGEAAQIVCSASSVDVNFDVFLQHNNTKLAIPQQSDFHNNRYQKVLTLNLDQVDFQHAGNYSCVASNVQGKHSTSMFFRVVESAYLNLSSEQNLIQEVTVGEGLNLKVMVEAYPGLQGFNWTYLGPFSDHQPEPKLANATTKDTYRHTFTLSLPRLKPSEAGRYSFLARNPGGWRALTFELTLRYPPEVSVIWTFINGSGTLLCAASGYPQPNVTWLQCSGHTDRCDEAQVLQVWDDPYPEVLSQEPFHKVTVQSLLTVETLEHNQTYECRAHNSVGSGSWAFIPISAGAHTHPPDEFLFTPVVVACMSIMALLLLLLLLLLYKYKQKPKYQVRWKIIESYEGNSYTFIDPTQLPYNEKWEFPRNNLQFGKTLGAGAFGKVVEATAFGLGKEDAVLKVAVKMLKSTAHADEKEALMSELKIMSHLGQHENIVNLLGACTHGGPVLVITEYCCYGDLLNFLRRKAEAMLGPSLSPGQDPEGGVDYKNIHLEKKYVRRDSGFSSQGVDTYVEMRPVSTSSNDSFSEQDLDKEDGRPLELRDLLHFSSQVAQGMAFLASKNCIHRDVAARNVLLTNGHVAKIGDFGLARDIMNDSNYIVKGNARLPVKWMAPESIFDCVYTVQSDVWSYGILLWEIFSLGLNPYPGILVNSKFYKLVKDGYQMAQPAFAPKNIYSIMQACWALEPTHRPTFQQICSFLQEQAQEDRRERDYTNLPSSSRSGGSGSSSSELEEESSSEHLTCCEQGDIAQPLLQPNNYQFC
Test: Detection of CSF1R phosphorylation activity at cell level (p-CSF1R ELISA, M-CSF stimulated THP-1 cells)
Assay type: cell-based
Settings: THP-1 cells, M-CSF stimulation, p-CSF1R ELISA; read-out: IC50
Protocol: THP-1 (ATCC), human acute monocytic leukemia cells. 3. Treatment of cells and preparation of lysis buffer […] 100 μL/well of the p-CSF1R capture antibody diluted to 0.8 μg/mL with PBS was added to the ELISA plate, and the plate was coated on a shaker at room temperature overnight. […] The optical density signal (450/570 nm) of each well was detected in Labsystems Multiskan K3 or Envision. […]
One number for each entry, as −log10 of the molar value.

COc1ccc([C@H]2COc3cc(Oc4ccc5ncc(C)c(=O)n5c4)cnc3O2)cn1 ... 7.08
COc1cc(Oc2ccc3ncc(N)c(=O)n3c2)cnc1OCc1ccc(C)cc1 ... 7.92
COc1cc(Oc2ccc3ncc(C)c(=O)n3c2)cnc1OCc1ccc(C)cc1 ... 7.72

Please report pIC50 for every entry that follows.
1. Cc1cnc2ccc(Oc3cnc(OCc4ccc(C5CC5)cc4)c(OCF)c3)cn2c1=O
2. COc1cc(Oc2ccc3ncc(N)c(=O)n3c2)cnc1OCc1ccc(-n2cccn2)cc1
3. COc1cc(Oc2ccc3ncc(C)c(=O)n3c2)cnc1OCCc1ccccc1
4. COc1ccc([C@H]2COc3cc(Oc4ccnc(-c5cnn(C)c5)c4)cnc3O2)cc1
5. COc1ccc([C@@H]2COc3cc(Oc4ccc5nccc(=O)n5c4)cnc3O2)cc1

7.32
7.47
6.72
7.68
7.74
